The reported numbers originate from ChEMBL document CHEMBL1148250.

Test system: Pseudomonas aeruginosa
Assay: Minimum concentration (using PAM1723, a strain of Pseudomonas aeruginosa) required to reduce antibacterial activity by 8 folds for aztreonam in the absence of human serum albumin
Format: functional
Metric: MPC8 (µg/mL)
Response body: numeric value in µg/mL, unit text excluded.

Look over these answered cases.
1. CC(C)(C)c1csc(NC(=O)c2ccn3c(=O)c(/C=C/C(=O)O)c(N4CCC[C@@H](OC(N)=O)C4)nc3c2)n1	0.5
2. CC(C)(C)c1csc(NC(=O)c2ccn3c(=O)c(/C=C/c4nn[nH]n4)c(N4CCC[C@H](OC(N)=O)C4)nc3c2)n1	1

Turning now to a further record.
Prompt: Can you share its MPC8? I mean this compound: CC(C)c1csc(CCc2ccn3c(=O)c(/C=C/C(=O)O)c(N4CCCC(O)C4)nc3c2)n1 (centres undefined)
Response: 8
